MEASURED_TARGET: Sodium/nucleoside cotransporter 2 (Homo sapiens, UniProt O43868)
Sequence (O43868 whole entry): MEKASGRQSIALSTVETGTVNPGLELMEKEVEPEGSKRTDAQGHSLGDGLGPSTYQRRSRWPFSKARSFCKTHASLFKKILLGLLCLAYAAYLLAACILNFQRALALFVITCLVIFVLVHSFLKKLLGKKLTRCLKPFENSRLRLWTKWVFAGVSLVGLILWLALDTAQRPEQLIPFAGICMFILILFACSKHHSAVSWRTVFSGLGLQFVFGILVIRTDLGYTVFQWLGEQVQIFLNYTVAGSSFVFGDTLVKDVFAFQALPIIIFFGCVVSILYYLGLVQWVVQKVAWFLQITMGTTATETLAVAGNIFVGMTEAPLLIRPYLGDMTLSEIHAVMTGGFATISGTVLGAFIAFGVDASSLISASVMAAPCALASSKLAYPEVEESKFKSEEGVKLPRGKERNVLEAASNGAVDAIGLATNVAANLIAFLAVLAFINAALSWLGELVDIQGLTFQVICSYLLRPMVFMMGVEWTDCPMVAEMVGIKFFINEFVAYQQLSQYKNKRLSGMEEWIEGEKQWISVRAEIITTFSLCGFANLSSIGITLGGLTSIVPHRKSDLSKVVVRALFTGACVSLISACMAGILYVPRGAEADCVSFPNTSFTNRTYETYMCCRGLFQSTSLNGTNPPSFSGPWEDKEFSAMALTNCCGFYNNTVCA
MEASUREMENT_DESCRIPTION: Inhibition of human CNT2 expressed in COS7 cells assessed as reduction in sodium-dependent [14C]-inosine uptake in presence of Na+ by liquid scintillation counting method
pIC50: −log10 of the molar value.
Assign Fulfilled to entries whose pIC50 meets or exceeds 5; assign Not fulfilled to the rest.

Known results for molecules:
>>> class_label("O=c1cc(-c2cccc(O)c2)oc2c(O)c(O)ccc12")
"Not fulfilled"
>>> class_label("Cc1cccc(CNc2nc3c(N)ncnc3n2[C@@H]2O[C@H](CO)[C@@H](O)[C@H]2O)c1")
"Not fulfilled"
>>> class_label("O=C(CCc1ccc(O)cc1)c1c(O)cc(O)cc1O[C@@H]1O[C@H](CO)[C@@H](O)[C@H](O)[C@H]1O")
"Not fulfilled"
>>> class_label("COc1ccc(CNc2nc3c(N)ncnc3n2[C@@H]2O[C@H](CO)[C@@H](O)[C@H]2O)cc1")
"Not fulfilled"
>>> class_label("CCNC(=O)OC[C@H]1O[C@@H](n2cnc3c(N)ncnc32)[C@H](O)[C@@H]1O")
"Not fulfilled"
>>> class_label("Nc1ncnc2c1nc(NCc1cccc3ccccc13)n2[C@@H]1O[C@H](CO)[C@@H](O)[C@H]1O")
"Fulfilled"

Q. Tell me whether pIC50 is at least 5 here: `Nc1ncnc2c1nc(NCCCc1ccccc1)n2[C@@H]1O[C@H](CO)[C@@H](O)[C@H]1O`
A. Not fulfilled

Q. Query `COC(=O)OC[C@H]1O[C@@H](n2cnc3c(N)ncnc32)[C@H](O)[C@@H]1O` next
A. Not fulfilled

Q. Likewise for `Nc1ncnc2c1nc(NCc1ccc3ccccc3c1)n2[C@@H]1O[C@H](CO)[C@@H](O)[C@H]1O` ?
A. Fulfilled

----------
MEASURED_TARGET: Sodium/nucleoside cotransporter 2 (Homo sapiens, UniProt O43868)
Sequence (O43868 whole entry): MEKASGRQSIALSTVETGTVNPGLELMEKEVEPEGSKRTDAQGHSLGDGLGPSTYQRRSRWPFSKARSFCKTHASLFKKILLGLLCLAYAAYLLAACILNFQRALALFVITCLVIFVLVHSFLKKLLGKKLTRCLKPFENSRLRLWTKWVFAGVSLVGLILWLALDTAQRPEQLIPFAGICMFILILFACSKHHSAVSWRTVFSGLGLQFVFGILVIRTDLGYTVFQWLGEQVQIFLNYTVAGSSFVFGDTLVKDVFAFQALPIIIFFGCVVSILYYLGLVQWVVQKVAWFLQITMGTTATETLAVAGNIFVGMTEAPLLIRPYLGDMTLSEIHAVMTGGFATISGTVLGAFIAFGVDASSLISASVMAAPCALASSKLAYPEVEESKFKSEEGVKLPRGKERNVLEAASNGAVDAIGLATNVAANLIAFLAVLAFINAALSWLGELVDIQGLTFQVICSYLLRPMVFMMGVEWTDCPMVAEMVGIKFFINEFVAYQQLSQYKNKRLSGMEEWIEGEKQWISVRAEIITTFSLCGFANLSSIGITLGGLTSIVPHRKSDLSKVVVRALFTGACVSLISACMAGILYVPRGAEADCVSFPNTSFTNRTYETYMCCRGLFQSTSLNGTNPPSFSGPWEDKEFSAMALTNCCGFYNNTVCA
MEASUREMENT_DESCRIPTION: Inhibition of human CNT2 expressed in COS7 cells assessed as reduction in sodium-dependent [14C]-inosine uptake in presence of Na+ by liquid scintillation counting method
Each record here notes measured IC50.

>>> recorded_result("Nc1ncnc2c1ncn2[C@@H]1O[C@H](COC(=O)OCc2ccccc2)[C@@H](O)[C@H]1O")
"> 100 µM"
>>> recorded_result("Cc1ccccc1CNc1nc2c(N)ncnc2n1[C@@H]1O[C@H](CO)[C@@H](O)[C@H]1O")
"65 µM"
>>> recorded_result("CC(=O)OC[C@H]1O[C@@H](n2cnc3c(N)ncnc32)[C@H](O)[C@@H]1O")
"> 100 µM"

Q. Look up IC50 for this molecule: `CCC(=O)OC[C@H]1O[C@@H](n2cnc3c(N)ncnc32)[C@H](O)[C@@H]1O`
A. > 100 µM

Q. Another: `Nc1ncnc2c1nc(NCc1cccc(-c3ccccc3)c1)n2[C@@H]1O[C@H](CO)[C@@H](O)[C@H]1O`
A. 21 µM

Q. And `COc1ccccc1CNc1nc2c(N)ncnc2n1[C@@H]1O[C@H](CO)[C@@H](O)[C@H]1O` ?
A. > 100 µM

Q. Now try `Nc1ncnc2c1nc(Nc1ccccc1)n2[C@@H]1O[C@H](CO)[C@@H](O)[C@H]1O` .
A. 289 µM

Q. Same lookup for `Nc1ncnc2c1nc(NCc1ccccc1)n2[C@@H]1O[C@H](CO)[C@@H](O)[C@H]1O` , please.
A. 52 µM

Q. Let us now turn to `CCCCCNC(=O)OC[C@H]1O[C@@H](n2cnc3c(N)ncnc32)[C@H](O)[C@@H]1O`
A. > 100 µM
